pIC50 values for TACE (Homo sapiens (Human), UniProt P78536) compiled from several publications are listed below.
Numbers only, as −log10 of the molar value.

Previously resolved entries follow.
molecule | pIC50
CC#CCOc1ccc(S(=O)(=O)C2(C(=O)NO)CCCN(CC)C2)cc1 (stereo not drawn) | 6.74
O=CN(O)C(CCO)CS(=O)(=O)N1CCc2ccc(Cl)cc2C1 (stereo not drawn) | 6.57
CC#CCOc1ccc(S(=O)(=O)N(C)CCC(=O)NO)cc1 | 7.14

Consider the record given below.
What value of pIC50 has been reported for the following molecule? O=CN(O)C(CCc1ccccc1)CS(=O)(=O)N1CCc2ccccc2C1 (stereo not drawn)
7.17
